B1: Homeobox expressed in ES cells 1, residues 110 to 165; numbered along this chain, Q9UBX0 (parent)
chain: RPRTAFTQNQIEVLENVFRVNCYPGIDIREDLAQKLNLEEDRIQIWFQNRRAKLKR

# Variants of: B1
# Assay comment: abundance fitness (aPCA) (normalised: wild type 0, dead -1); higher = more abundant; growth selection in yeast, the domain comes from the species named
# Test settings: Homo sapiens
Property name: abundance fitness

[[record]]
mutation_string = "D31P"
property_name = "abundance fitness"
assay_value = -0.675

[[record]]
mutation_string = "N21L"
property_name = "abundance fitness"
assay_value = -0.807

[[record]]
mutation_string = "C22M"
property_name = "abundance fitness"
assay_value = 0.425

[[record]]
mutation_string = "N16V"
property_name = "abundance fitness"
assay_value = -0.701

[[record]]
mutation_string = "N9S"
property_name = "abundance fitness"
assay_value = -0.004


INPUT: // returns reported abundance fitness for input I28A
OUTPUT: -0.089

INPUT: // returns reported abundance fitness for input D27R
OUTPUT: 0.137

INPUT: // returns reported abundance fitness for input E12V
OUTPUT: -0.137

INPUT: // returns reported abundance fitness for input G25W
OUTPUT: -0.755

INPUT: // returns reported abundance fitness for input Y23V
OUTPUT: -0.546

INPUT: // returns reported abundance fitness for input V17T
OUTPUT: -0.151

INPUT: // returns reported abundance fitness for input F6Q
OUTPUT: -0.678

INPUT: // returns reported abundance fitness for input F6S
OUTPUT: -0.791

INPUT: // returns reported abundance fitness for input E30V
OUTPUT: -0.186

INPUT: // returns reported abundance fitness for input I26K
OUTPUT: 0.305

INPUT: // returns reported abundance fitness for input E30G
OUTPUT: -0.131

INPUT: // returns reported abundance fitness for input A33E
OUTPUT: -0.848

INPUT: // returns reported abundance fitness for input F6Y
OUTPUT: -0.065

INPUT: // returns reported abundance fitness for input L32Q
OUTPUT: -0.487

INPUT: // returns reported abundance fitness for input R29C
OUTPUT: -0.019

INPUT: // returns reported abundance fitness for input N21F
OUTPUT: -0.868

INPUT: // returns reported abundance fitness for input Q34R
OUTPUT: 0.135

INPUT: // returns reported abundance fitness for input E15G
OUTPUT: -0.686

INPUT: // returns reported abundance fitness for input Q10I
OUTPUT: -0.404

INPUT: // returns reported abundance fitness for input N9P
OUTPUT: -0.292
